- test_system: UniProt:P16234
- Sequence (P16234 24-1089): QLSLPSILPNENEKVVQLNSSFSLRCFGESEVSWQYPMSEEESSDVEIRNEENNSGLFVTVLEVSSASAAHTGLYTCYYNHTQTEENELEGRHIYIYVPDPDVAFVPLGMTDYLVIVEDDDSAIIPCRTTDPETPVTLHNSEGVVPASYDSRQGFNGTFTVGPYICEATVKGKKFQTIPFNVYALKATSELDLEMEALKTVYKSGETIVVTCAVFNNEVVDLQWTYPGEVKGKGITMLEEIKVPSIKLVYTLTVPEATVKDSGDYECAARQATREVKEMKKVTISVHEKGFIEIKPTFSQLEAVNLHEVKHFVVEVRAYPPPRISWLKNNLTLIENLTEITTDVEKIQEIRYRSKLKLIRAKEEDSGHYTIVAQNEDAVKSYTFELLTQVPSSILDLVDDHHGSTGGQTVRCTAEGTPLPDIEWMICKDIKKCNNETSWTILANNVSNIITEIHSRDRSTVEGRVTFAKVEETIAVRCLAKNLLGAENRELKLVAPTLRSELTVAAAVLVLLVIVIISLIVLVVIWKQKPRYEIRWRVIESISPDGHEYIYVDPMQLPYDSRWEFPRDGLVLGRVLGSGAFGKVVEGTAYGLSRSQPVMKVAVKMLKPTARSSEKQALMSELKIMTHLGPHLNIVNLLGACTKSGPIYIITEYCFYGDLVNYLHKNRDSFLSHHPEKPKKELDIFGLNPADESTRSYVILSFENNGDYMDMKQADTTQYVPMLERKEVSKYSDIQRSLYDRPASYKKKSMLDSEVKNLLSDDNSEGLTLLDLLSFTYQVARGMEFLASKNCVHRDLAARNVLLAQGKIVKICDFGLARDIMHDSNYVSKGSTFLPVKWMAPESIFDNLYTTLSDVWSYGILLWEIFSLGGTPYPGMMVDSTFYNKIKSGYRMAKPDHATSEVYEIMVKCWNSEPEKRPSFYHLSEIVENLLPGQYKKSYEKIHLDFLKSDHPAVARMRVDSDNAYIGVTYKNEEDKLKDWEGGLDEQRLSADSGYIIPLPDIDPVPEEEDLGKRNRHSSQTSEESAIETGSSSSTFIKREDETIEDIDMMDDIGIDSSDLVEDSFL
reported_metric: IC50 (nM)

1. COc1cc(-c2cncc(N[C@@H](C)c3cccc(NC(=O)c4cncc(C)c4)c3)n2)ccc1O	35

---

- test_system: PDGFRbeta (Homo sapiens, UniProt P09619)
- Sequence (P09619 33-1106): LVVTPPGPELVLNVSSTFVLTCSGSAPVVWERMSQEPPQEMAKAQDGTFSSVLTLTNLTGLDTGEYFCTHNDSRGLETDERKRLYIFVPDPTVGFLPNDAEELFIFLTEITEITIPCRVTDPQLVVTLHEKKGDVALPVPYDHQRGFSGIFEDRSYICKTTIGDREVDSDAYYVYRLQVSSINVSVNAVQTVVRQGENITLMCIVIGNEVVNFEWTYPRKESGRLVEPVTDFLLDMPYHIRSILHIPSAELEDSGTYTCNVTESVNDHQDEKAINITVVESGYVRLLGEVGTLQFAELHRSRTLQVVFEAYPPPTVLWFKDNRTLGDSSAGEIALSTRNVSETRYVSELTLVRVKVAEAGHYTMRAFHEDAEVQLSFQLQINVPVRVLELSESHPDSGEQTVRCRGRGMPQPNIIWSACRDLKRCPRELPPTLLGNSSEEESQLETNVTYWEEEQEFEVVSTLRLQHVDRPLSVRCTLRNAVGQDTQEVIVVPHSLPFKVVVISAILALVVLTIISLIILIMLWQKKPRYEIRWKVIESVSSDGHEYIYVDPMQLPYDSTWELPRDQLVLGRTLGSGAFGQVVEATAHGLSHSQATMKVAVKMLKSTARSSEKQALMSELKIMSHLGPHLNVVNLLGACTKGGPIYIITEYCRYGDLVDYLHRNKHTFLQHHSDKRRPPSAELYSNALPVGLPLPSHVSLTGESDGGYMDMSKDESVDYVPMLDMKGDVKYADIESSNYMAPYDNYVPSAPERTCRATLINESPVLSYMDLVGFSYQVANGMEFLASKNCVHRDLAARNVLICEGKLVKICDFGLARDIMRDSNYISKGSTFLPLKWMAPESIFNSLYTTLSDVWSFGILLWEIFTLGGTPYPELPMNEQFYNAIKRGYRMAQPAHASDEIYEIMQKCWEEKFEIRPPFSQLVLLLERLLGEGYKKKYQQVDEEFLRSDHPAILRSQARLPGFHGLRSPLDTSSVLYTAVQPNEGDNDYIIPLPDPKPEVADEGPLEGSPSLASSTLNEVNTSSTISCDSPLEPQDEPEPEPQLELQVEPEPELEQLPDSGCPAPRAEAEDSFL
reported_metric: IC50

1. COc1cc(-c2cncc(N[C@@H](C)c3cccc(NC(=O)c4cncc(C)c4)c3)n2)ccc1O	10.1 nM
